Target: CDK9 (Homo sapiens, UniProt P50750)
Construct: endogenous in cells; host or cells: MDA-MB-231
Sequence (P50750 whole entry): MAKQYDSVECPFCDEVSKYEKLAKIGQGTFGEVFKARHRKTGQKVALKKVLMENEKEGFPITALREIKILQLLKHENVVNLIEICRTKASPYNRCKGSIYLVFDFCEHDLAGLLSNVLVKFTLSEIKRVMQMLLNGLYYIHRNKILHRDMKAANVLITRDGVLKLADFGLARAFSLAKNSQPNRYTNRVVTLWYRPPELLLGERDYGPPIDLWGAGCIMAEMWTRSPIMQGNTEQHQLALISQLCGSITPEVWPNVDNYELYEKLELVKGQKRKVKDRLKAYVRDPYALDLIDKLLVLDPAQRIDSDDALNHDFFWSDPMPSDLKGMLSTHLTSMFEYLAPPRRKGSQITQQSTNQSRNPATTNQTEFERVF
Test summary: CDK protein degradation activity (Western blotting), CDK9
Assay type: cell-based
Reported conditions: MDA-MB-231 cells, 1 μM, 16 hours, Western blot
Description: In order to evaluate the CDK protein degradation activity of the compounds according to the present invention, the following experiment was conducted. MDA-MB-231 cells were seeded at 5×10^5 cells per well in a 6-well plate. The next day, the compounds were treated in each well to achieve final concentrations of 100 nM, 1 μM, and 10 μM. […] Cell lysates were quantified and separated by size using sodium dodecyl sulfate-polyacrylamide gel electrophoresis (SDS-PAGE). […]
Measurement kind: Enzyme degradation CDK9 (% remaining) @ 1 μM (%)

Molecule	Recorded number
Cc1cccc(C(=O)N[C@H]2C[C@@H](n3cnc4c(Nc5ccc(N6CCN(C(=O)CNc7cccc8c7C(=O)N([C@H]7CCC(=O)NC7=O)C8=O)CC6)cc5)ncnc43)C2)n1	50
O=C1CC[C@H](N2C(=O)c3ccc(OCC(=O)N4CCC(CN5CCC(c6ccc(Nc7ncnc8c7ncn8C7CC(NC(=O)Cc8ccccc8)C7)cc6)CC5)CC4)cc3C2=O)C(=O)N1 (stereo partly drawn)	0

* * *

Target: CDK9 (Homo sapiens, UniProt P50750)
Construct: endogenous in cells; host or cells: MDA-MB-231
Test summary: CDK protein degradation activity (Western blotting), CDK9
Assay type: cell-based
Reported conditions: MDA-MB-231 cells, 1 μM, 16 hours, Western blot
Measurement kind: Enzyme degradation CDK9 (% remaining) @ 1 μM (%)

Compound	Target	Recorded number
O=C1CC[C@H](N2C(=O)c3cccc(NC[C@H]4CC[C@H](CN5CCN(c6ccc(Nc7ncnc8c7ncn8[C@H]7C[C@@H](NC(=O)Cc8ccccc8)C7)cc6)CC5)CC4)c3C2=O)C(=O)N1	CDK9 (Homo sapiens, UniProt P50750)	70
Cc1cccc(C(=O)NC2CC(n3cnc4c(NC5CCN(C(=O)CC6CCN(c7ccc8c(c7)C(=O)N([C@H]7CCC(=O)NC7=O)C8=O)CC6)CC5)ncnc43)C2)n1 (some centres unmarked)	CDK9 (Homo sapiens, UniProt P50750)	90

* * *

Target: CDK9 (Homo sapiens)
Construct: endogenous in cells; host or cells: MDA-MB-231
Test summary: CDK protein degradation activity (Western blotting), CDK9
Assay type: cell-based
Reported conditions: MDA-MB-231 cells, 1 μM, 16 hours, Western blot
Some compounds, each annotated with its measured Enzyme degradation CDK9 (% remaining) @ 1 μM.
Measurement kind: Enzyme degradation CDK9 (% remaining) @ 1 μM (%)

Compound	Target	Recorded number
Cc1cccc(C(=O)NC2CC(n3cnc4c(NCc5cccc(N6CCN(C(=O)COc7cccc8c7C(=O)N([C@H]7CCC(=O)NC7=O)C8=O)CC6)c5)ncnc43)C2)n1 (stereo partly shown)	CDK9 (Homo sapiens)	60
Cc1cccc(C(=O)N[C@H]2C[C@@H](n3cnc4c(NCCCN5CCN(CC6CCN(C(=O)COc7cccc([C@@H]8CCC(=O)NC8=O)c7)CC6)CC5)ncnc43)C2)n1	CDK9 (Homo sapiens)	10
O=C1CC[C@H](N2C(=O)c3ccc(NCC(=O)N4CCC(CC(=O)N5CCN(c6ccc(Nc7ncnc8c7ncn8C7CC(NC(=O)Cc8ccccc8)C7)cc6)CC5)CC4)cc3C2=O)C(=O)N1 (stereo partly shown)	CDK9 (Homo sapiens)	30
O=C1CC[C@H](N2C(=O)c3cccc(OCC(=O)N4CCC5(CC(N6CCN(c7ccc(Nc8ncnc9c8ncn9[C@H]8C[C@@H](NC(=O)Cc9ccccc9)C8)cc7)CC6)C5)C4)c3C2=O)C(=O)N1 (stereo partly shown)	CDK9 (Homo sapiens)	40
O=C1CC[C@H](N2C(=O)c3cccc(NCC(=O)N4CCC5(CC(N6CCN(c7ccc(Nc8ncnc9c8ncn9C8CC(NC(=O)Cc9ccccc9)C8)cc7)CC6)C5)C4)c3C2=O)C(=O)N1 (stereo partly shown)	CDK9 (Homo sapiens)	0
O=C1CC[C@H](N2C(=O)c3ccc(N4CCC(CN5CCC(c6ccc(Nc7ncnc8c7ncn8[C@H]7C[C@@H](NC(=O)Cc8ccccc8)C7)cc6)CC5)CC4)cc3C2=O)C(=O)N1	CDK9 (Homo sapiens)	0
Cc1cccc(C(=O)NC2CC(n3cnc4c(NC5CCN(C(=O)CC6CCN(C(=O)CNc7cccc8c7C(=O)N([C@H]7CCC(=O)NC7=O)C8=O)CC6)CC5)ncnc43)C2)n1 (stereo partly shown)	CDK9 (Homo sapiens)	30
O=C1CC[C@H](N2C(=O)c3cccc(N4CC(CN5CCC6(CC5)CC(N5CCN(c7ccc(Nc8ncnc9c8ncn9[C@H]8C[C@@H](NC(=O)Cc9ccccc9)C8)cc7)CC5)C6)C4)c3C2=O)C(=O)N1	CDK9 (Homo sapiens)	10
O=C1CCC(N2C(=O)c3ccc(N4CC(C(=O)N5CCN(C6CN(c7ccc(Nc8ncnc9c8ncn9[C@H]8C[C@@H](NC(=O)Cc9ccccc9)C8)cc7)C6)CC5)C4)cc3C2=O)C(=O)N1 (stereo partly shown)	CDK9 (Homo sapiens)	20
O=C1CC[C@H](N2C(=O)c3ccc(N4CCC(CN5CCC(CCNc6ncnc7c6ncn7C6CC(NC(=O)Cc7ccccc7)C6)CC5)CC4)cc3C2=O)C(=O)N1 (stereo partly shown)	CDK9 (Homo sapiens)	10
Cc1cccc(C(=O)NC2CC(n3cnc4c(NC5CCN(CCOC6CCN(C(=O)CNc7cccc8c7C(=O)N([C@H]7CCC(=O)NC7=O)C8=O)CC6)CC5)ncnc43)C2)n1 (stereo partly shown)	CDK9 (Homo sapiens)	10
O=C1CC[C@H](N2C(=O)c3ccc(N4CC(C(=O)N5CCN(C6CN(c7ccc(Nc8ncnc9c8ncn9[C@H]8C[C@@H](NC(=O)Cc9ccccc9)C8)cc7)C6)CC5)C4)cc3C2=O)C(=O)N1	CDK9 (Homo sapiens)	20
